system: 22Rv1 cells; experiment: MTT assay (cytotoxicity), 22Rv1 cells; type: cell-based; conditions: 22Rv1 cells, 72 h, Table 4.2
quantity: IC50
Don't forget the unit after the number, please.

Answered examples (3):
>>> endpointresult("N#Cc1ccc(NC(=O)Nc2cccc(C(F)(F)F)c2)cc1Cl")
"1.9 µM"
>>> endpointresult("N#Cc1ccc(NC(=O)Nc2ccc(C(F)(F)F)cc2)cc1C(F)(F)F")
"1.6 µM"
>>> endpointresult("N#Cc1ccc(NC(=O)Nc2cc(C(F)(F)F)cc(C(F)(F)F)c2)cc1Cl")
"0.4 µM"

Below: the item to evaluate.
Prompt: Entry "N#Cc1ccc(NC(=O)Nc2ccc([N+](=O)[O-])c(C(F)(F)F)c2)cc1C(F)(F)F" has what IC50?
Completion: 5.2 µM

---

assay: MTT assay (cytotoxicity), LNCaP cells; format: cell-based; details: human, LNCaP cells, 72 h treatment, Table 6.1
# IC50 at 72 h per entry
Reply with just the number (in µM).

Solved entries:
>>> endpointresult("O=C(N/C=C/c1cccc(OC(F)(F)F)c1)Nc1ccncn1")
4.6
>>> endpointresult("O=C(Nc1cccc(C(F)(F)F)c1)Nc1ccc(F)c(NC(=O)c2ccc(F)cc2F)c1")
6.3
>>> endpointresult("O=C(Nc1cccc(C(F)(F)F)c1)Nc1ccc(NC(=O)c2ccccc2F)c(C(F)(F)F)c1")
1
>>> endpointresult("O=C(Nc1cccc(C(F)(F)F)c1)Nc1ccc(F)c(NC(=O)c2cc(I)ccc2F)c1")
4
>>> endpointresult("O=C(Nc1ccc(C(F)(F)F)cc1)Nc1ccc(F)c(NC(=O)c2ccc(F)cc2F)c1")
3.5

Continue with the compound presented below.
Prompt: What measured IC50 at 72 h goes with "O=C(Nc1cc(F)cc(C(F)(F)F)c1)Nc1ccc(NC(=O)c2ccccc2F)c(C(F)(F)F)c1" ?
Completion: 3.4

---

system: DU145 cells; test: MTT assay (cytotoxicity), DU145 cells; assay type: cell-based; settings: 72 h, Table 2.1
quantity: IC50
Returns: string containing the number followed by the unit.

# annotated cases, reported IC50 shown
>>> endpointresult("O=C(N/C=C/c1cc(C(F)(F)F)cc(C(F)(F)F)c1)Nc1cnccc1Cl")
"6.5 µM"
>>> endpointresult("N#Cc1ccc(NC(=O)N/C=C/c2cccc(C(F)(F)F)c2)cn1")
"5.7 µM"
>>> endpointresult("N#Cc1ccc(NC(=O)N/C=C/c2cc(C(F)(F)F)ccc2C(F)(F)F)cn1")
"1.7 µM"

Prompt: Endpoint output: IC50 of "N#Cc1ccc(NC(=O)N/C=C/c2cc(C(F)(F)F)cc(C(F)(F)F)c2)nc1" . Value?
Completion: 2 µM

---

experiment: MTT assay (cytotoxicity), 22Rv1 cells; assay type: cell-based; conditions: human, 22Rv1 cells, 72 h treatment, Table 6.1
quantity: log10 of IC50 at 72 h (log10 of the value in µM)
Scale: decimal log of IC50 at 72 h, IC50 at 72 h in µM.

>>> endpointresult("O=C(Nc1cccc(C(F)(F)F)c1)Nc1ccc(NC(=O)Nc2ccc(F)cc2)c(C(F)(F)F)c1")
0.71
>>> endpointresult("O=C(Nc1cccc(C(F)(F)F)c1)Nc1ccc(F)c(NC(=O)c2cc(I)ccc2F)c1")
0.99
>>> endpointresult("O=C(Nc1cccc(C(F)(F)F)c1)Nc1ccc(NC(=O)c2cccnc2F)c(C(F)(F)F)c1")
1.00
>>> endpointresult("O=C(Nc1cccc(NC(=O)Nc2cccc(C(F)(F)F)c2)c1)Nc1cccc(C(F)(F)F)c1")
0.82
>>> endpointresult("O=C(Nc1ccc(F)c(NC(=O)c2ccc(F)cc2F)c1)Nc1ccccc1C(F)(F)F")
0.76
>>> endpointresult("O=C(Nc1ccc(Br)cc1)Nc1ccc(F)c(NC(=O)c2cc(C(F)(F)F)ccc2F)c1")
0.67
>>> endpointresult("O=C(Nc1ccc(C(F)(F)F)cc1)Nc1ccc(F)c(NC(=O)c2ccc(F)cc2F)c1")
0.98
>>> endpointresult("O=C(Nc1cccc(C(F)(F)F)c1)Nc1cc(C(=O)O)cc(C(F)(F)F)c1")
1.52

Prompt: Requested field: log10 of IC50 at 72 h. Item: "O=C(Nc1cccc(C(F)F)c1)Nc1ccc(NC(=O)c2ccc(F)cc2F)c(C(F)(F)F)c1"
Completion: 0.85

Prompt: Find the recorded log10 of IC50 at 72 h belonging to "O=C(Nc1cccc(C(F)(F)F)c1)Nc1ccc(NC(=O)Nc2cccc(F)c2)c(C(F)(F)F)c1" and report it.
Completion: 1.06

Prompt: Suppose we examine the compound "O=C(Nc1cccc(C(F)(F)F)c1)Nc1ccc(F)c(NC(=O)c2c(F)cccc2F)c1" ; what log10 of IC50 at 72 h value has been reported?
Completion: 1.15

Prompt: If you can, please state the reported log10 of IC50 at 72 h value of "O=C(Nc1cccc(C(F)F)c1)Nc1ccc(NC(=O)c2cc(C(F)(F)F)ccc2F)c(C(F)(F)F)c1" .
Completion: 0.56

Prompt: Quick check: log10 of IC50 at 72 h of "O=C(Nc1cccc(F)c1)Nc1cc(NC(=O)Nc2cccc(F)c2)cc(C(F)(F)F)c1" ?
Completion: 0.26

Cited source for all entries: patent US20170273922A1
